All values here come from patent US20220009894A1.

# tested.on: RORγt-LBD (Homo sapiens)
# Sequence (P51449 269-508 limits assumed): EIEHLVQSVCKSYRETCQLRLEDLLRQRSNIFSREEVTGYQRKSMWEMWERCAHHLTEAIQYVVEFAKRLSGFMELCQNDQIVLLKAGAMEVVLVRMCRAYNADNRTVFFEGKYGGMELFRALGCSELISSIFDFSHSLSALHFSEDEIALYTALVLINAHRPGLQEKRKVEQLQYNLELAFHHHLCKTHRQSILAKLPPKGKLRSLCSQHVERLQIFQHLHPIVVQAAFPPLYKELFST
# measurement.notes: Time-resolved fluorescence resonance energy-transfer assay (TR-FRET), co-activator peptide recruitment
# Format: biochemical
# Design: unit not given here
# reported.conditions: upper activation limit; His-RORγt-LBD, SRC peptide
result.type: TR-FRET Biochemical Amax
When you answer, write just the number.

Considering CC1(C)C=C(c2ccc3c(c2)N(S(=O)(=O)c2cccc(C(F)(F)F)c2)C[C@@H]2CN(S(C)(=O)=O)CCN32)CC(C)(C)O1 , its TR-FRET Biochemical Amax with RORγt-LBD (Homo sapiens) was recorded as 0.97

Considering NS(=O)(=O)N1CCN2c3ccc(-c4cc(F)cc(OC(F)F)c4)cc3N(S(=O)(=O)c3cccc(C(F)(F)F)c3)C[C@@H]2C1 , its TR-FRET Biochemical Amax with RORγt-LBD (Homo sapiens) was recorded as 0.87

Considering NC(=O)C1(N2CCN3c4ccc(/C=C/c5c(Cl)cccc5C(F)(F)F)cc4N(S(=O)(=O)c4cccc(C(F)(F)F)c4)C[C@@H]3C2)CCC1 , its TR-FRET Biochemical Amax with RORγt-LBD (Homo sapiens) was recorded as 1.19

Considering O=S(=O)(c1cccc(C(F)(F)F)c1)N1C[C@@H]2CN(C3COC3)CCN2c2ccc(/C=C/c3c(Cl)cccc3C(F)(F)F)cc21 , its TR-FRET Biochemical Amax with RORγt-LBD (Homo sapiens) was recorded as 0.93

Considering CC(C)(C)OC(=O)C(C)(C)N1CCN2c3ccc(/C=C/c4c(Cl)cccc4C(F)(F)F)cc3N(S(=O)(=O)c3cccc(C(F)(F)F)c3)C[C@@H]2C1 , its TR-FRET Biochemical Amax with RORγt-LBD (Homo sapiens) was recorded as 0.50

Considering C[C@@]1(OCCC(N)=O)CCN2c3ccc(-c4cc(F)cc(OC(F)F)c4)cc3N(S(=O)(=O)c3cccc(C(F)(F)F)c3)C[C@@H]2C1 , its TR-FRET Biochemical Amax with RORγt-LBD (Homo sapiens) was recorded as 0.68

Considering CN1c2ccc(/C=C/c3c(Cl)cccc3C(F)(F)F)cc2N(S(=O)(=O)c2cccc(C(F)(F)F)c2)C[C@@H]1CCC(=O)O , its TR-FRET Biochemical Amax with RORγt-LBD (Homo sapiens) was recorded as 1.54

Considering NC(=O)N1CCN2c3ccc(/C=C/c4c(Cl)cccc4C(F)(F)F)cc3N(S(=O)(=O)c3cccc(C(F)(F)F)c3)C[C@@H]2C1 , its TR-FRET Biochemical Amax with RORγt-LBD (Homo sapiens) was recorded as 0.98

Considering COC(=O)C(C)N1CCN2c3ccc(/C=C(\C)c4c(F)cccc4Cl)cc3N(S(=O)(=O)c3cccc(C(F)(F)F)c3)C[C@@H]2C1 (stereo partly drawn) , its TR-FRET Biochemical Amax with RORγt-LBD (Homo sapiens) was recorded as 0.79

Considering O=S(=O)(c1cccc(C(F)(F)F)c1)N1CC2C[S+]([O-])CCN2c2ccc(-c3cc(F)cc(OC(F)F)c3)cc21 (stereo not drawn) , its TR-FRET Biochemical Amax with RORγt-LBD (Homo sapiens) was recorded as 0.45

Considering CC1(C)C=C(c2ccc3c(c2)N(S(=O)(=O)c2cccc(C(F)(F)F)c2)C[C@@H]2CN(C[C@H](O)CO)CCN32)CC(C)(C)O1 , its TR-FRET Biochemical Amax with RORγt-LBD (Homo sapiens) was recorded as 1.28

Considering C[C@@]1(O)CCN2c3ccc(-c4cc(F)cc(OC(F)F)c4)cc3N(S(=O)(=O)c3cccc(C(F)(F)F)c3)C[C@@H]2C1 , its TR-FRET Biochemical Amax with RORγt-LBD (Homo sapiens) was recorded as 1.31

---

Answer each item with its documented EC50.
# tested.on: RORγt (Homo sapiens)
# Construct: The plasmid of pFN26A-RORγt-LBD and pG14.35 (Promega, Cat. No. E1370) were co-transfected into HEK 293 cells
# measurement.notes: RORγt cellular reporter gene detection assay
# reported.conditions: HEK 293 cells co-transfected with pFN26A-RORγt-LBD and pG14.35, in presence of antagonist Ursolic acid, 24 hrs; top concentration 50 μM
Express your answer in nM, writing the number without its unit.

C/C(=C\c1ccc2c(c1)N(S(=O)(=O)c1cccc(C(F)(F)F)c1)C[C@@H]1CN(C(C)C(=O)O)CCN21)c1c(F)cccc1Cl (stereo partly shown) yielded EC50 of 441

O=C(O)CCOC1CCN2c3ccc(-c4cc(F)cc(OC(F)F)c4)cc3N(S(=O)(=O)c3cccc(C(F)(F)F)c3)C[C@@H]2C1 (stereo partly shown) yielded EC50 of 468

O=C(O)COC1CCN2c3ccc(-c4cc(F)cc(OC(F)F)c4)cc3N(S(=O)(=O)c3cccc(C(F)(F)F)c3)C[C@@H]2C1 (stereo partly shown) yielded EC50 of 704

CC(=O)N1CCN2c3ccc(/C=C/c4c(Cl)cccc4C(F)(F)F)cc3N(S(=O)(=O)c3cccc(OC(F)(F)F)c3)C[C@@H]2C1 yielded EC50 of 1140

CC1(C)C=C(c2ccc3c(c2)N(S(=O)(=O)c2cccc(C(F)(F)F)c2)C[C@@H]2CN(S(C)(=O)=O)CCN32)CC(C)(C)O1 yielded EC50 of 25.7

COc1ncc(C(F)(F)F)cc1S(=O)(=O)N1C[C@@H]2CN(CC(=O)O)CCN2c2ccc(-c3cc(F)cc(OC(F)F)c3)cc21 yielded EC50 of 264

O=C(O)[C@@H]1CCN2c3ccc(-c4cc(F)cc(OC(F)F)c4)cc3N(S(=O)(=O)c3cccc(C(F)(F)F)c3)C[C@@H]2C1 yielded EC50 of 627

O=C(O)CCO[C@@H]1CCN2c3ccc(-c4cc(F)cc(OC(F)F)c4)cc3N(S(=O)(=O)c3cccc(C(F)(F)F)c3)C[C@@H]2C1 yielded EC50 of 178

C/C(=C\c1ccc2c(c1)N(S(=O)(=O)c1cccc(C(F)(F)F)c1)C[C@@H]1CN(S(C)(=O)=O)CCN21)c1c(F)cccc1Cl yielded EC50 of 178

O=S(=O)(c1cccc(C(F)(F)F)c1)N1C[C@H]2COCCN2c2ccc(-c3cc(F)cc(OC(F)F)c3)cc21 yielded EC50 of 4840

CS(=O)(=O)N1CCN2c3ccc(/C=C/c4c(Cl)cccc4C(F)(F)F)cc3N(S(=O)(=O)c3cccc(C(F)(F)F)c3)C[C@@H]2C1 yielded EC50 of 603

O=C(O)CN1CCN2c3ccc(/C=C/c4c(Cl)cccc4C(F)(F)F)cc3N(S(=O)(=O)c3cccc(C(F)(F)F)c3)C[C@H]2C1 yielded EC50 of 979

---

# tested.on: RORγt (Homo sapiens, UniProt P51449)
# Construct: The plasmid of pFN26A-RORγt-LBD and pG14.35 (Promega, Cat. No. E1370) were co-transfected into HEK 293 cells
# measurement.notes: RORγt cellular reporter gene detection assay
# reported.conditions: HEK 293 cells co-transfected with pFN26A-RORγt-LBD and pG14.35, in presence of antagonist Ursolic acid, 24 hrs; top concentration 50 μM
API: label(entry) gives rule met if the entry's EC50 is strictly smaller than 500 nM; on equality or larger values it gives rule not met.

Is EC50 strictly under 500 nM for the entry O=S(=O)(c1cccc(C(F)(F)F)c1)N1C[C@@H]2COCCN2c2ccc(-c3cc(F)cc(OC(F)F)c3)cc21 ?
rule not met

Is EC50 strictly under 500 nM for the entry C[C@]1(O)CCN2c3ccc(-c4cc(F)cc(OC(F)F)c4)cc3N(S(=O)(=O)c3cccc(C(F)(F)F)c3)C[C@@H]2C1 ?
rule not met

Is EC50 strictly under 500 nM for the entry COC(=O)C(C)N1CCN2c3ccc(C4=CC(C)(C)OC(C)(C)C4)cc3N(S(=O)(=O)c3cccc(C(F)(F)F)c3)C[C@@H]2C1 (stereo partly shown) ?
rule met

Is EC50 strictly under 500 nM for the entry CN1c2ccc(/C=C/c3c(Cl)cccc3C(F)(F)F)cc2N(S(=O)(=O)c2cccc(C(F)(F)F)c2)C[C@@H]1CCC(=O)O ?
rule not met

Is EC50 strictly under 500 nM for the entry CC(C)OC(=O)CN1CCN2c3ccc(/C=C/c4c(Cl)cccc4C(F)(F)F)cc3N(S(=O)(=O)c3cccc(C(F)(F)F)c3)C[C@@H]2C1 ?
rule not met

Is EC50 strictly under 500 nM for the entry CC1(C)C=C(c2ccc3c(c2)N(S(=O)(=O)c2cc(C(F)(F)F)cnc2OCCO)C[C@@H]2CNCCN32)CC(C)(C)O1 ?
rule not met

Is EC50 strictly under 500 nM for the entry O=S(=O)(c1cccc(C(F)(F)F)c1)N1C[C@@H]2CCCN2c2ccc(-c3cc(F)cc(OC(F)F)c3)cc21 ?
rule not met

Is EC50 strictly under 500 nM for the entry C/C(=C\c1ccc2c(c1)N(S(=O)(=O)c1cccc(C(F)(F)F)c1)C[C@@H]1CN(S(N)(=O)=O)CCN21)c1c(F)cccc1Cl ?
rule not met

Is EC50 strictly under 500 nM for the entry N#Cc1cc(Cl)cc(-c2ccc3c(c2)N(S(=O)(=O)c2cccc(C(F)(F)F)c2)C[C@@H]2CN(CC(=O)O)CCN32)c1 ?
rule not met

Is EC50 strictly under 500 nM for the entry NS(=O)(=O)N1CCN2c3ccc(/C=C/c4c(Cl)cccc4C(F)(F)F)cc3N(S(=O)(=O)c3cccc(C(F)(F)F)c3)C[C@@H]2C1 ?
rule met

Is EC50 strictly under 500 nM for the entry C/C(=C\c1ccc2c(c1)N(S(=O)(=O)c1cccc(C(F)(F)F)c1)C[C@@H]1CN(C(=O)CC#N)CCN21)c1c(F)cccc1Cl ?
rule met

Is EC50 strictly under 500 nM for the entry N#Cc1ccc(F)c(-c2ccc3c(c2)N(S(=O)(=O)c2cccc(C(F)(F)F)c2)C[C@@H]2CN(CC(=O)O)CCN32)c1 ?
rule not met
